# System: BEN
# PROCEDURE_TEXT: relative viability (nuclei count vs DMSO), 5 days (fraction); higher = more cells survive
# REPORTED_CONDITIONS: first compound 0.8 µM
relative viability overview
API note: the answer field is a bare number with no unit suffix.

- MOLECULE: "Oc1nc(-c2ccc(C(F)(F)F)cc2)nc2c1CSCC2 [XAV939] + NC(=O)Nc1cc(-c2cccc(F)c2)sc1C(=O)N[C@H]1CCCNC1 [AZD7762] (partner 0.2 µM)"
  ASSAYED_SYSTEM: "BEN"
  VALUE_REPORTED: 0.619
- MOLECULE: "C=C1C(=O)O[C@@H](CCCCCCCC)[C@@H]1C(=O)O [C-75] + Cc1nc(Nc2ncc(C(=O)Nc3c(C)cccc3Cl)s2)cc(N2CCN(CCO)CC2)n1 [Dasatinib] (partner 0.075 µM)"
  ASSAYED_SYSTEM: "BEN"
  VALUE_REPORTED: 0.326
- MOLECULE: "Oc1nc(-c2ccc(C(F)(F)F)cc2)nc2c1CSCC2 [XAV939] + CS(=O)(=O)N1CCN(Cc2cc3nc(-c4cccc5[nH]ncc45)nc(N4CCOCC4)c3s2)CC1 [Pictilisib] (partner 1 µM)"
  ASSAYED_SYSTEM: "BEN"
  VALUE_REPORTED: 0.529

Returns the measured relative viability for the input molecule. Input: C=C1C(=O)O[C@@H](CCCCCCCC)[C@@H]1C(=O)O [C-75] + O=C(CCCCCCC(=O)Nc1ccccc1)NO [Vorinostat] (partner 1 µM)
0.524

Returns the measured relative viability for the input molecule. Input: Oc1nc(-c2ccc(C(F)(F)F)cc2)nc2c1CSCC2 [XAV939] + CC(C)C[C@H](NC(=O)[C@H](Cc1ccccc1)NC(=O)c1cnccn1)B(O)O [Bortezomib] (partner 0.002 µM)
0.559

====

# Test system: HCC-827
# PROCEDURE_TEXT: relative viability (nuclei count vs DMSO), 5 days (fraction); higher = more cells survive
# REPORTED_CONDITIONS: first compound 0.05 µM
relative viability overview

- MOLECULE: "CC1(C)CCC(c2ccc(Cl)cc2)=C(CN2CCN(c3ccc(C(=O)NS(=O)(=O)c4ccc(N[C@H](CCN5CCOCC5)CSc5ccccc5)c(S(=O)(=O)C(F)(F)F)c4)cc3)CC2)C1 [Navitoclax] + CS(=O)(=O)N1CCN(Cc2cc3nc(-c4cccc5[nH]ncc45)nc(N4CCOCC4)c3s2)CC1 [Pictilisib] (partner 1 µM)"
  ASSAYED_SYSTEM: "HCC-827"
  VALUE_REPORTED: 0.933
- MOLECULE: "CC1(C)CCC(c2ccc(Cl)cc2)=C(CN2CCN(c3ccc(C(=O)NS(=O)(=O)c4ccc(N[C@H](CCN5CCOCC5)CSc5ccccc5)c(S(=O)(=O)C(F)(F)F)c4)cc3)CC2)C1 [Navitoclax] + C[C@@H](Oc1cc(-c2cnn(C3CCNCC3)c2)cnc1N)c1c(Cl)ccc(F)c1Cl [Crizotinib] (partner 1 µM)"
  ASSAYED_SYSTEM: "HCC-827"
  VALUE_REPORTED: 0.966

Next molecule, relative viability to be filled in.
Kindly state the measured relative viability obtained for CC1(C)CCC(c2ccc(Cl)cc2)=C(CN2CCN(c3ccc(C(=O)NS(=O)(=O)c4ccc(N[C@H](CCN5CCOCC5)CSc5ccccc5)c(S(=O)(=O)C(F)(F)F)c4)cc3)CC2)C1 [Navitoclax] + CS(=O)(=O)CCNCc1ccc(-c2ccc3ncnc(Nc4ccc(OCc5cccc(F)c5)c(Cl)c4)c3c2)o1 [Lapatinib] (partner 2 µM) with HCC-827.
0.194
